Origin of measurements: paper PMC5515408

Recorded binding signal values for a group of sequences are listed next.
- target_entity: MYC (p64);MAX (p21), in MYC:MAX (human;human, UniProt P01106-1;P61244-2 1-439;1-151, |)
- Sequence (P01106 16-454, chain 1 of 2): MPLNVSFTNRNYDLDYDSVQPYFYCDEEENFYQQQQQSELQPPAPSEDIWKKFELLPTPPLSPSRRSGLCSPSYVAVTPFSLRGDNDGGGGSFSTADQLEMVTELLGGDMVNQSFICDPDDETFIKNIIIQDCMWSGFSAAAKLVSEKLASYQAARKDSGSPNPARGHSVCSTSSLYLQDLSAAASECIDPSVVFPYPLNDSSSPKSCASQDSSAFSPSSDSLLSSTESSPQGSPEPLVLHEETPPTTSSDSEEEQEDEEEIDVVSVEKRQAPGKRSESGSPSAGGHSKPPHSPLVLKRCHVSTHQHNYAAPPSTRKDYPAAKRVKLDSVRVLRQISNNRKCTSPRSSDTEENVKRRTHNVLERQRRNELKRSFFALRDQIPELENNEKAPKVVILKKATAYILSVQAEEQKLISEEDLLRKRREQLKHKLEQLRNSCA
- Sequence (P61244 other isoform, or with tags, fused parts or gaps |, chain 2 of 2): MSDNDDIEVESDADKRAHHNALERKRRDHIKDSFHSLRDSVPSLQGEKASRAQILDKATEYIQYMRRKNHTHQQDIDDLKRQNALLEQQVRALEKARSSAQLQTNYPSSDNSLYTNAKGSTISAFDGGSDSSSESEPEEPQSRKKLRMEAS
- method: protein-binding microarray (anti-MAX antibody); PBM: 15 mM Tris-HCl pH 7.5, 100 mM KCl, 0.075% NP40, 7.5 mM beta-mercaptoethanol, 375 ng/ul BSA, 8 ng/ul poly(dA-dT):(dA-dT), 550 ng complex, 60 min, room tempe; high values mean tight binding
- study_conditions: protein: recombinant;recombinant; tags: 6xHis;6xHis; copies: 1;1; label: 3' end of printed strand (linker) attached to glass slide; dsDNA, one strand shown
The full ranking holds about 5,000 sequences; the median of “log2 normalized fluorescence” is about 0.089, and the highest 2% start at about 0.81. The full list was thinned out, with the highest values kept by preference.

Sample records with binding signal:
- residue_codes: "CCGGCAGACACTTGGTATTAATAGCTAAGATTACTATATCGACG"
  target_entity: "MYC (p64);MAX (p21), in MYC:MAX (human;human, UniProt P01106-1;P61244-2 1-439;1-151, |)"
  binding signal: "0.421 log2 normalized fluorescence"
- residue_codes: "CCGGCAGTCACATGGTATTAATAGCTAAGATTACTATATCGACG"
  target_entity: "MYC (p64);MAX (p21), in MYC:MAX (human;human, UniProt P01106-1;P61244-2 1-439;1-151, |)"
  binding signal: "0.995 log2 normalized fluorescence"
- residue_codes: "CCGGCAGACACATGGTATTAATAGCTAAGATTACTATATCGACG"
  target_entity: "MYC (p64);MAX (p21), in MYC:MAX (human;human, UniProt P01106-1;P61244-2 1-439;1-151, |)"
  binding signal: "0.834 log2 normalized fluorescence"
- residue_codes: "CCGGCAGACACGAGGTTTTAATAGCTAAGATTACTATATCGACG"
  target_entity: "MYC (p64);MAX (p21), in MYC:MAX (human;human, UniProt P01106-1;P61244-2 1-439;1-151, |)"
  binding signal: "0.64 log2 normalized fluorescence"
- residue_codes: "CCGGCAGACATGGGGTATTAATAGCTAAGATTACTATATCGACG"
  target_entity: "MYC (p64);MAX (p21), in MYC:MAX (human;human, UniProt P01106-1;P61244-2 1-439;1-151, |)"
  binding signal: "0.458 log2 normalized fluorescence"

**Q:** binding signal for CCGGCAGACACGAGGTATTAATAGCTAAGATTACTATATCGACG ?
**A:** 0.93 log2 normalized fluorescence

----------
- target_entity: MYC (p64);MAX (p21), in MYC:MAX (human;human, UniProt P01106-1;P61244-2 1-439;1-151, |)
- method: protein-binding microarray (anti-MAX antibody); PBM: 15 mM Tris-HCl pH 7.5, 100 mM KCl, 0.075% NP40, 7.5 mM beta-mercaptoethanol, 375 ng/ul BSA, 8 ng/ul poly(dA-dT):(dA-dT), 550 ng complex, 60 min, room tempe; high values mean tight binding
- study_conditions: protein: recombinant;recombinant; tags: 6xHis;6xHis; copies: 1;1; label: 3' end of printed strand (linker) attached to glass slide; dsDNA, one strand shown
The full ranking holds about 5,000 sequences; the median of “log2 normalized fluorescence” is about 0.089, and the highest 2% start at about 0.81. The full list was thinned out, with the highest values kept by preference.
quantity: binding signal

- residue_codes: "CCGGCTGTCACGTGATATTAATAGCTAAGATTACTATATCGACG"
  binding signal: "0.587 log2 normalized fluorescence"

**Q:** Request - read-out binding signal | tested on MYC (p64);MAX (p21), in MYC:MAX (human;human, UniProt P01106-1;P61244-2 1-439;1-151, |) | sequence CCGGCTGACACGACATATTAATAGCTAAGATTACTATATCGACG
**A:** 0.459 log2 normalized fluorescence

**Q:** Now consider CCGGCTGAGCCGCTGTATTAATAGCTAAGATTACTATATCGACG .
**A:** 0.0565 log2 normalized fluorescence

**Q:** Now consider CCGGCTGACGGCAGGTATTAATAGCTAAGATTACTATATCGACG .
**A:** -0.00507 log2 normalized fluorescence

**Q:** Now consider CCGGCTGAATTACCGTATTAATAGCTAAGATTACTATATCGACG .
**A:** 0.041 log2 normalized fluorescence

**Q:** Now consider CCGGCTGACGTCACGTATTAATAGCTAAGATTACTATATCGACG .
**A:** 0.246 log2 normalized fluorescence

**Q:** Now consider CCGGCTGAAGGCCCGTATTAATAGCTAAGATTACTATATCGACG .
**A:** 0.0982 log2 normalized fluorescence

**Q:** Now consider CCGGCTGGCACCCGGTATTAATAGCTAAGATTACTATATCGACG .
**A:** 0.242 log2 normalized fluorescence

**Q:** Now consider CCGGCTGAGCGATAGTATTAATAGCTAAGATTACTATATCGACG .
**A:** -0.0333 log2 normalized fluorescence

**Q:** Now consider CCGGCTGAGAGTACGTATTAATAGCTAAGATTACTATATCGACG .
**A:** 0.142 log2 normalized fluorescence

**Q:** Now consider CCGGCTGCCACGTGATATTAATAGCTAAGATTACTATATCGACG .
**A:** 0.881 log2 normalized fluorescence

----------
Recorded binding signal values for a group of sequences are listed next.
- target_entity: MYC (p64);MAX (p21), in MYC:MAX (human;human, UniProt P01106-1;P61244-2 1-439;1-151, |)
- method: protein-binding microarray (anti-MAX antibody); PBM: 15 mM Tris-HCl pH 7.5, 100 mM KCl, 0.075% NP40, 7.5 mM beta-mercaptoethanol, 375 ng/ul BSA, 8 ng/ul poly(dA-dT):(dA-dT), 550 ng complex, 60 min, room tempe; high values mean tight binding
- study_conditions: protein: recombinant;recombinant; tags: 6xHis;6xHis; copies: 1;1; label: 3' end of printed strand (linker) attached to glass slide; dsDNA, one strand shown
Whole data set: some 5,000 sequences, median “log2 normalized fluorescence” near 0.089, cut for the highest 2% near 0.81. The full list was thinned out, with the highest values kept by preference.

- residue_codes: "CCGGCTGACGTTTTGTATTAATAGCTAAGATTACTATATCGACG"
  target_entity: "MYC (p64);MAX (p21), in MYC:MAX (human;human, UniProt P01106-1;P61244-2 1-439;1-151, |)"
  quantity: "binding signal"
  obs_value: "-0.0354 log2 normalized fluorescence"
- residue_codes: "CCGGCTGACACGTGTGCTTAATAGCTAAGATTACTATATCGACG"
  target_entity: "MYC (p64);MAX (p21), in MYC:MAX (human;human, UniProt P01106-1;P61244-2 1-439;1-151, |)"
  quantity: "binding signal"
  obs_value: "0.818 log2 normalized fluorescence"
- residue_codes: "CCGGCTGATACGTGGTATTAATAGCTAAGATTACTATATCGACG"
  target_entity: "MYC (p64);MAX (p21), in MYC:MAX (human;human, UniProt P01106-1;P61244-2 1-439;1-151, |)"
  quantity: "binding signal"
  obs_value: "0.341 log2 normalized fluorescence"
- residue_codes: "CCGGCTGACACGTGCGATTAATAGCTAAGATTACTATATCGACG"
  target_entity: "MYC (p64);MAX (p21), in MYC:MAX (human;human, UniProt P01106-1;P61244-2 1-439;1-151, |)"
  quantity: "binding signal"
  obs_value: "0.786 log2 normalized fluorescence"
- residue_codes: "CCGGCTGAAACCGCGTATTAATAGCTAAGATTACTATATCGACG"
  target_entity: "MYC (p64);MAX (p21), in MYC:MAX (human;human, UniProt P01106-1;P61244-2 1-439;1-151, |)"
  quantity: "binding signal"
  obs_value: "0.25 log2 normalized fluorescence"

**Q:** binding signal for CCGGCTGATATGACGTATTAATAGCTAAGATTACTATATCGACG ?
**A:** 0.0181 log2 normalized fluorescence

**Q:** Now consider CCGGCTGACACGTTGCATTAATAGCTAAGATTACTATATCGACG .
**A:** 0.792 log2 normalized fluorescence

**Q:** Now consider CCGGCTGACTTCAGGTATTAATAGCTAAGATTACTATATCGACG .
**A:** 0.148 log2 normalized fluorescence

**Q:** Now consider CCGGCTGACTCTTGGTATTAATAGCTAAGATTACTATATCGACG .
**A:** 0.16 log2 normalized fluorescence

**Q:** Now consider CCGGCTGACCCCGTGTATTAATAGCTAAGATTACTATATCGACG .
**A:** 0.42 log2 normalized fluorescence
